# System: HCT-116 colon
# MEASUREMENT_NOTES: NCI-60 one-dose screen, 48 h
# TEST_CONTEXT: 10 µM unless noted
The panel holds about 83,000 compounds, 20% with a hit somewhere; the sample as a whole holds those more often. The source made the active and inactive calls. The calls were made as follows: active = growth percent below 10; inactive = the rest.
Outcome codes: 1 (active), -1 (inactive)

| COMPOUND | TESTED_TARGET | CLASS_ASSIGNMENT |
| --- | --- | --- |
| COC(=O)Nc1ccc2ccc3c(NC(=O)OC)ccc4ccc1c2c43 (tested in a mixture with another compound) | HCT-116 colon | -1 |
| CCCCOP(=O)(OCCCC)C(C(=O)OCC)C(CC(=O)OCC)C(=O)OCC (stereo not given) | HCT-116 colon | -1 |
| CCn1cnc(C[C@H](NC(=O)[C@H](CCCCNC(=O)Nc2cc(C(F)(F)F)cc(C(F)(F)F)c2)NC(=O)Nc2cc(C(F)(F)F)cc(C(F)(F)F)c2)C(=O)OC)c1 | HCT-116 colon | 1 |
| Nc1nc(NC2CC2)c2ncn(C3C=CC(CO)C3)c2n1 (stereo not given) | HCT-116 colon | -1 |
| OCc1n(Cc2ccc3ccccc3c2)cc[n+]1Cc1ccc2ccccc2c1 | HCT-116 colon | -1 |
| Cc1cc(Cl)ccc1Nc1nc(C(F)(F)F)ccc1C(=O)N/N=C/c1ccc(Cl)cc1 | HCT-116 colon | 1 |
| COc1ccc2c(c1)c(CC(=O)[Se]C)c(C)n2C(=O)c1ccc(Cl)cc1 | HCT-116 colon | 1 |
| CSc1nc(N)c2c(n1)N(C)C=NS2(=O)=O | HCT-116 colon | -1 |
| CC(=O)OCC(=O)[C@@]1(O)CC[C@H]2[C@@H]3CCC4=CC(=O)CC[C@]4(C)[C@@]3(F)[C@@H](O)C[C@@]21C | HCT-116 colon | -1 |
| CCCCCN(CCCCC)CCCNc1c2c(nc3ccc(Cl)cc13)CCCC2 | HCT-116 colon | 1 |
| N#Cc1c(-c2ccccc2)cc(-c2ccccc2)n(CC(=O)O)c1=O | HCT-116 colon | -1 |
| COc1cccc2c1C(=O)c1c(O)c3c(c(O)c1C2=O)C[C@@](O)(C(C)=O)C[C@@H]3O[C@H]1C[C@H](N)[C@H](O)[C@H](C)O1 | HCT-116 colon | 1 |
| O=C(/C=C/c1c(-c2ccccc2)[nH]c2ccccc12)S(=O)(=O)c1ccccc1 | HCT-116 colon | -1 |
| O=C(COc1cccc(/C=C2\Cc3ccccc3C2=O)c1)c1ccc(Cl)cc1 | HCT-116 colon | -1 |
| CCCCCc1c(C)[nH]c(/C=C2\N=C(c3ccc[nH]3)C=C2Oc2ccccc2)c1C | HCT-116 colon | 1 |
| Cc1[nH]cnc1/C=C1\SC(N2CCCCC2)=NC1=O | HCT-116 colon | -1 |
| CCN(CC)CCSc1ncnc2c1cnn2-c1ccc(S(N)(=O)=O)cc1 | HCT-116 colon | -1 |
| N#Cc1c(-c2ccccc2)cc(-c2ccccc2)n(CCC(=O)O)c1=O | HCT-116 colon | -1 |
| Nc1ccc2c(c1)Cc1cc(Cl)c(Cl)cc1-2 | HCT-116 colon | -1 |
| CCCCN1c2nc3ccccc3cc2Sc2cc3ccccc3nc21 | HCT-116 colon | -1 |
